Where these numbers come from: the supplement of paper PMC8728848

# Tested System: Gal(b1-4)GlcNAc(b1-3)Gal(b1-4)Glc
# Method Description: glycan array binding signal (z-score within array); higher = stronger binding
# Reported Conditions: glycan notation: IUPAC condensed, linker removed
Only a selection was taken, and the strongest signals are over-represented in it overall.
Observed Property: glycan array binding signal (z-score)

>>> measured_result("Pp2-A2 (Arabidopsis thaliana), Q07098 (protein) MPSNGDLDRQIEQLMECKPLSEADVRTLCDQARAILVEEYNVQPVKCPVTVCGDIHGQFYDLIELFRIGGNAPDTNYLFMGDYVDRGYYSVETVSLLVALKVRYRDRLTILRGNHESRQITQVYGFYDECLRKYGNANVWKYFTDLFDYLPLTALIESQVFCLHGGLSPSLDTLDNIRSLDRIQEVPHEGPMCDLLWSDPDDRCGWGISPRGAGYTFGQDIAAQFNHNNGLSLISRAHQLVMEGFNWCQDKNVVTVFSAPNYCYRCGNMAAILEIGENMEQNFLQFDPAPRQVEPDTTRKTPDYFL")
-0.032
>>> measured_result("WGA (Triticum vulgare) (protein) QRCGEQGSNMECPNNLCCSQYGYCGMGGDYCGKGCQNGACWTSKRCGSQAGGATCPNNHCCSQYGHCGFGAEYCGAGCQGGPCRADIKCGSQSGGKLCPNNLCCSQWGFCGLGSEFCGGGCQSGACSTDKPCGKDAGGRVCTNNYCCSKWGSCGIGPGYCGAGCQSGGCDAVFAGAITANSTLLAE")
-0.341
>>> measured_result("CLEC7A (Homo sapiens), Q9BXN2 (protein) MEYHPDLENLDEDGYTQLHFDSQSNTRIAVVSEKGSCAASPPWRLIAVILGILCLVILVIAVVLGTMAIWRSNSGSNTLENGYFLSRNKENHSQPTQSSLEDSVTPTKAVKTTGVLSSPCPPNWIIYEKSCYLFSMSLNSWDGSKRQCWQLGSNLLKIDSSNELGFIVKQVSSQPDNSFWIGLSRPQTEVPWLWEDGSTFSSNLFQIRTTATQENPSPNCVWIHVSVIYDQLCSVPSYSICEKKFSM")
0.542
>>> measured_result("Langerin K299A/K313A (Homo sapiens), Q9UJ71 (protein) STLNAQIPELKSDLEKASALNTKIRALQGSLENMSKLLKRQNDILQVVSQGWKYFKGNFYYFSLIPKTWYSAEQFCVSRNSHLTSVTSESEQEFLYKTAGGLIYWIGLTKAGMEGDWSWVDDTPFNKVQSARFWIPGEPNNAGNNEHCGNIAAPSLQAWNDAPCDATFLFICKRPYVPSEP")
-0.709
>>> measured_result("EUL D1A second (Oryza sativa) (protein) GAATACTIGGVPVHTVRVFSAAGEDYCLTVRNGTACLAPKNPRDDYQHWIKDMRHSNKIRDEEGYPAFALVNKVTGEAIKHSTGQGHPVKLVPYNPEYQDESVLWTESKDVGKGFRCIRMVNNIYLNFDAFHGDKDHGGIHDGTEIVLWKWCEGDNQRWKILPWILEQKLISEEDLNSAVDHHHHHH")
-0.283
>>> measured_result("Tap1 (Sordaria macrospora), Q50IV4 (protein) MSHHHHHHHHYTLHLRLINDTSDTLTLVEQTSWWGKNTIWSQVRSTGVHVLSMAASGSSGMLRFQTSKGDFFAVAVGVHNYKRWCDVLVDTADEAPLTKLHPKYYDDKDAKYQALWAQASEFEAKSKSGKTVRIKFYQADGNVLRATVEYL")
-0.235
>>> measured_result("T7P4 (Tuber borchii) (protein) GSHIGPYMSFYASSEDVRTIEEGGRTWLVGRARRADGSWQDIKLDLDNIIGNRDGHLTWGEQNFTQSASDIRFNFEGSNVPVLRAKLRNAAGGEQESDLNLGERLTNNNGDLVFN")
2.77
>>> measured_result("AT1G15820(NC) (Arabidopsis thaliana) (protein) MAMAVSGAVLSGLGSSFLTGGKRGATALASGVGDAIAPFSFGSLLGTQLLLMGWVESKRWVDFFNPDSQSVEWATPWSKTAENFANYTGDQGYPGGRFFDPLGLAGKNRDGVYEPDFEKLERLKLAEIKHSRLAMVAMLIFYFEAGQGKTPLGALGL")
3.65
>>> measured_result("TbCVNHOb (Tuber borchii) (protein) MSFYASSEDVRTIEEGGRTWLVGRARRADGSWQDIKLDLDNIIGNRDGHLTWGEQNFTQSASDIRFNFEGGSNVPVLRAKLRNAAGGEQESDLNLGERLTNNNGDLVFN")
2.32
>>> measured_result("DCAL1 (Homo sapiens), Q8IZS7 (protein) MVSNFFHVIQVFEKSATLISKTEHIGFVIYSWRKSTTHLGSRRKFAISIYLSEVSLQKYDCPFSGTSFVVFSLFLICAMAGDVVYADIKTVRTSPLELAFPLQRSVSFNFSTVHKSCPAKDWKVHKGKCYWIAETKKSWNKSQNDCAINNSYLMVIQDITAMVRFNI")
1.75
>>> measured_result("AT1G15820(2) (Arabidopsis thaliana), Q9LMQ2 (protein) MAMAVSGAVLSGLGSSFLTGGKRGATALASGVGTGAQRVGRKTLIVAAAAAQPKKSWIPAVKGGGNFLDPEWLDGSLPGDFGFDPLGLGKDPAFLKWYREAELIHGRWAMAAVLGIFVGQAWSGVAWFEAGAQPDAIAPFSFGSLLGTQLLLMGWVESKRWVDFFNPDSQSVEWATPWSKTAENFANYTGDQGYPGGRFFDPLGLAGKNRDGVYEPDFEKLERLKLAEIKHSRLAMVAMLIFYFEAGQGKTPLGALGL")
-0.362
